- Test system: SK-MEL-30;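 also: growth inhibition of SK-MEL-30 cells, determined with a cell viability assay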
- procedure details: cells
- Format: functional, cell-based
- condition info: Homo sapiens
- Description: SANGER: Inhibition of human SK-MEL-30 cell growth in a cell viability assay.
Listed below: IC50 values for each entry.
measurement label: IC50

INSERT INTO assay_data (compound, measurement_label, readout_value) VALUES
  ('COc1ccc(-c2cc3nccn3c(Nc3ncccc3C(N)=O)n2)cc1OC', 'IC50', '> 8 µM'),
  ('O=S(=O)(O)c1ccc2cc(/N=N/c3cc(S(=O)(=O)O)c4cccnc4c3O)ccc2c1', 'IC50', '> 16 µM'),
  ('NC1(c2ccc(-c3nc4ccn5c(=O)[nH]nc5c4cc3-c3ccccc3)cc2)CCC1 [MK-2206]', 'IC50', '> 4 µM'),
  ('CC1=C(/C=C/C(C)=C/C=C/C(C)=C/C(=O)O)C(C)(C)CCC1 [TRETINOIN]', 'IC50', '> 10 µM'),
  ('Cc1ccc(C(=O)Nc2ccc(CN3CCN(C)CC3)c(C(F)(F)F)c2)cc1C#Cc1cnc2cccnn12 [PONATINIB]', 'IC50', '> 0.512 µM'),
  ('NC(=O)c1ccc(N(C(N)=O)c2c(F)cccc2F)nc1-c1ccc(F)cc1F [VX-702]', 'IC50', '> 2 µM'),
  ('C/C(=C\c1csc(C)n1)[C@@H]1C[C@@H]2O[C@]2(C)CCC[C@H](C)[C@H](O)[C@@H](C)C(=O)C(C)(C)[C@@H](O)CC(=O)O1 [PATUPILONE]', 'IC50', '0.00134 µM');
